Please go through the items and note down their growth inhibition.
# assay.comment: S. cerevisiae growth inhibition in restrictive medium, OD615, pilot screen, restrictive growth control, yeast lifespan reduction project (AID 706);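 note: modified DeaD lifespan yeast strain shifted to restrictive glucose medium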
# condition.context: OD615, 48 h, at 10 µM, active compounds read high
Field format: number, assumed %, no unit text.

Problem: Returns the measured growth inhibition for the input compound. Input: COc1cc(C2C(C#N)=C(C)NC3=C2C(=O)CC(C)(C)C3)ccc1OCCO (stereo unspecified)
Result: -14.6

Problem: # input compound: Cn1cc(Cl)c(C(=O)NC2CCCC2)n1 ; wanted: its growth inhibition
Result: -8.69

Problem: # growth inhibition lookup, item COc1ccccc1CNC(=O)c1cnc2ccccn2c1=O
Result: 8.2

Problem: GET /values?readout=growth inhibition&item= O=C(CSc1ccc2nnc(-c3cccnc3)n2n1)N1CCc2ccccc21
Result: 4.37

Problem: growth inhibition lookup needed for O=C(Nc1ccncc1)c1cccc(F)c1 , thanks.
Result: 3.45

Problem: Which growth inhibition value is on record for CCN(CC)C(=O)COc1ccc2oc(C)c(C(=O)OC(C)C)c2c1 ?
Result: -9.19

Problem: Return reported growth inhibition; argument: O=C(NCCN1CCN(c2ccccc2)CC1)c1ccc(NC(=O)C2CCCO2)cc1 (stereo unspecified)
Result: -8.76

Problem: # growth inhibition lookup, item O=C(Nc1ncc(Cc2ccccc2)s1)C1CCCO1 (stereo unspecified)
Result: 3.14

Problem: Which measured growth inhibition value corresponds to CCN(CC)C(=O)Oc1ccccc1NC(C)=O ?
Result: -2.54

Problem: Form field: reported growth inhibition of CCOC(=O)C1=C(C)NC(=O)NC1c1ccc(Br)s1 (stereo unspecified)
Result: -15.3

Problem: For Cc1noc(C)c1S(=O)(=O)NC1CCN(Cc2ccccc2)CC1 , what is its reported growth inhibition?
Result: -2.23

Problem: Dear colleague, I am looking for the recorded growth inhibition of the following compound: COc1ccc(C(=O)CCC(=O)O)cc1
Result: 0.095

Problem: Look up growth inhibition: O=C(NCc1ccccc1)C1CCN(S(=O)(=O)c2cccc3cccnc23)CC1
Result: -4.87

Problem: Data request, read-out growth inhibition, for Cc1nc2ccc(S(=O)(=O)NC(C(=O)N3CCC(C)CC3)C(C)C)cc2s1 (stereo unspecified)
Result: -2.64

Problem: Given the entry [O-]/[N+](=C\c1ccc(OC(F)F)cc1)c1ccccc1 , report its measured growth inhibition.
Result: 2.88

Problem: Quick one: growth inhibition for O=C(Nc1nc(-c2ccco2)c(-c2ccco2)s1)C1CC(=O)N(c2ccc3c(c2)OCCO3)C1 (stereo unspecified) ?
Result: -20.3

Problem: Any idea what growth inhibition was measured for S=c1[nH]nc(-c2ccccc2)n1C1C=CCCC1 (stereo unspecified) ?
Result: -1.09

Problem: I'd like to know its growth inhibition. The compound in question is COc1ccc(C)cc1NC(=O)C1CCCN(S(=O)(=O)c2c(C)noc2/C=C/N(C)C)C1 (stereo unspecified)
Result: 3.38

Problem: Consider the compound Cc1ccnc(SCCn2c(N3CCN(Cc4ccccc4)CC3)nc3c2c(=O)[nH]c(=O)n3C)n1 and give its measured growth inhibition.
Result: 0.065

Problem: # query: growth inhibition of entry C=CCNC(=O)CSc1nc2sc(C)c(C)c2c(=O)[nH]1
Result: -4.47

Problem: Fill in the blank: the reported growth inhibition of Cc1ccc2nc(-c3ccccc3)cc(C(=O)O)c2c1 is ____.
Result: 8.96
